measured metric: melting point

Task: Form field: reported melting point of O=C1N(C(c2ccccc2)c2ccccc2)c2ccccc2C12COc1cc3c(cc12)OCCCO3 (stereo not drawn) [Example 2.13]
Output: 165 to 168 °C

Task: Please give the measured melting point for this compound: CC(C)(C)OC(=O)Nc1ccc(CN2C(=O)C3(COc4cc5c(cc43)OCCO5)c3ccccc32)cn1 (stereo not drawn) [Example 9.40]
Output: 238 to 239 °C

Task: Given COc1cc2c(cc1F)C1(CO2)C(=O)N(Cc2ccccn2)c2ccccc21 (stereo not drawn) [Example 4.65] , state its recorded melting point.
Output: 142 to 144 °C

Task: Entry under review: O=C1N(Cc2cc(-c3ccc(Cl)cc3)oc2C(F)(F)F)c2ccccc2C12COc1cc3c(cc12)OCO3 (stereo not drawn) [Example 1.15] . Reported melting point?
Output: 114 to 116 °C

Task: # query: melting point of entry O=C1N(Cc2cc(C(F)(F)F)ccn2)c2ccccc2C12COc1cc3c(cc12)OCCO3 (stereo not drawn) [Example 23]
Output: 154 to 155 °C

Task: What measured melting point goes with O=C(NCCCN1C(=O)C2(COc3cc4c(cc32)CCO4)c2ccccc21)c1ccccc1OC(F)(F)F (stereo not drawn) [Example 13.11] ?
Output: 65 to 70 °C

Task: Sample COc1ccc(CN2C(=O)C3(COc4cc5c(cc43)CCO5)c3c2ccc2ncccc32)cc1 (stereo not drawn) [Example 2.38] — what was its melting point?
Output: 169 to 170 °C

Task: Please report the recorded melting point for CN1C(=O)C2(COc3cc4c(cc32)OCCO4)c2c(-c3cc[nH]n3)cccc21 (stereo not drawn) [Example 16.67] .
Output: 201 to 202 °C

Task: Need melting point of O=C1Nc2c(Br)cccc2C12COc1cc3c(cc12)OCO3 (stereo not drawn) [Example 1.5] , thanks.
Output: 240 °C (dec.)

Task: Consider the compound COCCOCCN1C(=O)C2(COc3cc4c(cc32)OCCO4)c2ccccc21 (stereo not drawn) [Example 9.20] and give its measured melting point.
Output: 90 to 91 °C

Task: If you can, please state the reported melting point value of CN(C)c1cccc(CN2C(=O)C3(COc4cc5c(cc43)OCCO5)c3ccccc32)n1 (stereo not drawn) [Example 32.2] .
Output: 196 to 197 °C

Task: Please look up its melting point: Cc1ccc(NC(=O)c2ccc(CN3C(=O)C4(COc5cc6c(cc54)CCO6)c4ccccc43)cc2)c(C)c1 (stereo not drawn) [Example 12.37]
Output: 249 to 251 °C

---

measured metric: melting point

Task: Given the compound COc1ccc(CN2C(=O)C3(COc4cc5onc(C)c5cc43)c3ccccc32)cc1 (centres unmarked) , what is its reported melting point?
Output: 138 to 139 °C

Task: Recorded melting point of CN1C(=O)C2(C(=O)N(Cc3ccccn3)c3ccccc32)c2cc3c(cc21)OCCO3 (centres unmarked) , please.
Output: 87 to 89 °C

Task: For the compound CNC(=O)c1cc(CN2C(=O)C3(COc4cc5c(cc43)OCO5)c3ccccc32)oc1C(F)(F)F (centres unmarked) , what melting point is on record?
Output: 202 to 203 °C

Task: Form field: reported melting point of COC(=O)c1ccc(CN2C(=O)C3(COc4cc5c(cc43)OCCO5)c3ccccc32)cc1 (centres unmarked)
Output: 167 to 169 °C

Task: Can you look up the measured melting point of COc1cc(CN2C(=O)C3(COc4cc5c(cc43)OCCO5)c3ccccc32)ccc1F (centres unmarked) for me?
Output: 161 to 163 °C

Task: May I ask what melting point has been recorded for O=C1N(C(c2ccccc2)c2ccccc2)c2ccccc2C12COc1ccc(F)cc12 (centres unmarked) ?
Output: 182 to 184 °C

Task: melting point lookup needed for Nc1nc(CN2C(=O)C3(COc4cc5c(cc43)OCO5)c3ccccc32)cs1 (centres unmarked) , thanks.
Output: 230 to 235 °C

Task: Look at this compound and give its reported melting point. O=C1N(Cc2ccc(OCc3ccccc3)cc2)c2ccccc2C12COc1cc3c(cc12)CCO3 (centres unmarked)
Output: 169 to 170 °C

Task: // lookup melting point for O=C1N(Cc2ncccn2)c2ccccc2C12COc1cc3c(cc12)CCO3 (centres unmarked)
Output: 203 to 205 °C

Task: Which melting point is listed for Cc1noc2cc3c(cc12)C1(CO3)C(=O)N(C[C@H]2CCCO2)c2ccccc21 (some centres unmarked) ?
Output: 134 to 135 °C

Task: Data request, read-out melting point, for O=C1N(Cc2noc(C(F)F)n2)c2ccccc2C12COc1cc3c(cc12)OCO3 (centres unmarked)
Output: 137 to 139 °C

Task: Which melting point reading was recorded for the compound O=C1Nc2ccccc2C12COc1c(Cl)cc3c(c12)OCCO3 (centres unmarked) ?
Output: 255 to 257 °C

Task: Form field: reported melting point of O=C1N(Cc2nc3ccccc3s2)c2ccccc2C12COc1cc3c(cc12)OCCO3 (centres unmarked)
Output: 164 to 166 °C

Task: # lookup: melting point of Cc1noc(-c2cccc(CN3C(=O)C4(COc5cc6c(cc54)OCCO6)c4ccccc43)c2)n1 (centres unmarked)
Output: 80 to 89 °C

Task: Item under review: CCCCCCC(=O)Nc1cccc2c1C1(COc3cc4c(cc31)OCCO4)C(=O)N2C (centres unmarked) . Reported melting point?
Output: 123 to 124 °C

Task: Recorded melting point for O=C1N(Cc2cnc(N3CCCCC3)s2)c2ccccc2C12COc1cc3c(cc12)OCO3 (centres unmarked) , please?
Output: 195 to 197 °C

Task: What does the record list as melting point for CC(=O)N1C(=O)C2(COc3cc4c(cc32)OCCO4)c2ccccc21 (centres unmarked) ?
Output: 236 to 238 °C

Task: Would you kindly share the measured melting point for Cl.O=C1N(C[C@H]2CCCO2)c2ccccc2C12COc1cc(O[C@@H]3CCNC3)ccc12 (some centres unmarked) ?
Output: 120 to 130 °C

Task: For the compound N#Cc1cccnc1CN1C(=O)C2(COc3cc4c(cc32)OCCO4)c2ccccc21 (centres unmarked) , what melting point is on record?
Output: 230 to 233 °C

Task: I have this compound here, Cc1nc(-c2ccc(CN3C(=O)C4(COc5cc6c(cc54)CCO6)c4ccccc43)cc2)no1 (centres unmarked) , and I need its recorded melting point.
Output: 185 to 186 °C

Task: Requested read-out: melting point. Entry: O=C1N(Cc2ncccc2C(F)(F)F)c2ccccc2C12COc1ccc3nonc3c12 (centres unmarked)
Output: 212 to 215 °C

Task: Consider the compound CSc1ccc(CN2C(=O)C3(COc4cc5c(cc43)OCO5)c3ccccc32)cc1 (centres unmarked) and give its measured melting point.
Output: 128 to 130 °C

Task: Which melting point reading was recorded for the compound O=C(Nc1ccccc1F)c1ccc(CN2C(=O)C3(COc4cc5c(cc43)OCCO5)c3ccccc32)cc1 (centres unmarked) ?
Output: 245 to 251 °C

Task: // lookup melting point for O=C1N(Cc2cnccc2C(F)(F)F)c2ccccc2C12COc1cc3c(cc12)OCCO3 (centres unmarked)
Output: 131 to 132 °C

Task: Fill in the blank: the reported melting point of COc1ccc(CN2C(=O)C3(COc4cc5onc(N)c5cc43)c3ccccc32)cc1 (centres unmarked) is ____.
Output: 214 to 216 °C

Task: State the recorded melting point for this entry: `O=C1N(Cc2ccc(C(F)(F)F)o2)c2ccccc2[C@@]12COc1cc3c(cc12)CCO3`
Output: 68 to 70 °C

Task: Query (compound): CC(C)(C)c1nc(CN2C(=O)C3(COc4cc5c(cc43)OCO5)c3ccccc32)no1 (centres unmarked) ; field requested: melting point
Output: 183 to 185 °C

Task: Would you kindly share the measured melting point for N#CCN1C(=O)C2(COc3cc4c(cc32)OCO4)c2c(Cl)cccc21 (centres unmarked) ?
Output: 122 to 123 °C

Task: Recorded melting point of O=C1N(C(c2ccccc2)c2ccccc2)c2ccccc2C12COc1cc3c(cc12)OCCO3 (centres unmarked) , please.
Output: 183 to 185 °C

Task: Given the entry Cc1c(F)cccc1NC(=O)c1ccc(CN2C(=O)C3(COc4cc5c(cc43)CCO5)c3ccccc32)cc1 (centres unmarked) , report its measured melting point.
Output: 143 to 144 °C

Task: Reported melting point, compound Cl.O=C1N(C[C@H]2CCCO2)c2ccccc2C12COc1cc(O[C@H]3CCNC3)ccc12 (some centres unmarked) : ____
Output: 119 to 121 °C

Task: Returns the measured melting point for the input compound. Input: O=C1N(Cc2cnc(O)nc2)c2ccccc2C12COc1cc3c(cc12)OCCO3 (centres unmarked)
Output: > 250 °C
